- Assay Explanation: In-vivo pharmacokinetics of compounds in SD rats
- Condition Parameters: rat, plasma, intravenous, 3 mg/kg, read-out: AUC0-8 h
# AUC(0-t) at 8 h listing for each entry below
Value expressed in ng·h/mL; do not type the unit.

[
  {
    "Compound": "CC[C@@]1(O)C(=O)OCc2c1cc1n(c2=O)Cc2c-1nc1cc(F)c(C)c3c1c2[C@@H](NC(=O)CO)CC3 [Dxd]",
    "Measure Unit": "ng·h/mL",
    "AUC(0-t) at 8 h": 760
  }
]

// moving on: another record for AUC(0-t) at 8 h
Specify AUC(0-t) at 8 h for C=CCN(CCO)C(=O)N[C@H]1CCc2c(C)c(F)cc3nc4c(c1c23)Cn1c-4cc2c(c1=O)COC(=O)[C@]2(O)CC [Example 3] and stop.
405

====

# half-life listing for each entry below
- Assay Explanation: In-vivo pharmacokinetics of compounds in SD rats
- Condition Parameters: rat, plasma, intravenous, 3 mg/kg
Value expressed in h; do not type the unit.

[
  {
    "Compound": "C=CCN(CCO)C(=O)N[C@H]1CCc2c(C)c(F)cc3nc4c(c1c23)Cn1c-4cc2c(c1=O)COC(=O)[C@]2(O)CC [Example 3]",
    "Measure Unit": "h",
    "half-life": 1.73
  }
]

// moving on: another record for half-life
Specify half-life for CC[C@@]1(O)C(=O)OCc2c1cc1n(c2=O)Cc2c-1nc1cc(F)c(C)c3c1c2[C@@H](NC(=O)CO)CC3 [Dxd] and stop.
1.96

====

- Assay Explanation: In-vivo pharmacokinetics of compounds in SD rats
- Condition Parameters: rat, plasma, intravenous, 1 mg/kg, read-out: AUC0-8 h
Parameter Measured: AUC(0-t) at 8 h (ng·h/mL)
Value expressed in ng·h/mL; do not type the unit.

Specify AUC(0-t) at 8 h for `CC[C@@]1(O)C(=O)OCc2c1cc1n(c2=O)Cc2c-1nc1cc(F)c(C)c3c1c2[C@@H](NC(=O)CO)CC3` and stop.
240

====

- Tested on: NCI-N87 (human gastric cancer cells)
- Assay Explanation: Cell-proliferation inhibitory activity (CellTiter-Glo, 3 days)
- Type: cell-based
- From the text: The experiment was intended to detect in-vitro inhibitory activities of the compounds of the present disclosure on NCI-N87 (human gastric cancer cells), KPL-4 (human breast cancer cells) or MDA-MB-468 (human breast cancer cells). […]
Parameter Measured: IC50 (nM)
Value expressed in nM; do not type the unit.

Specify IC50 for `C#CCN(CCO)C(=O)N[C@H]1CCc2c(C)c(F)cc3nc4c(c1c23)Cn1c-4cc2c(c1=O)COC(=O)[C@]2(O)CC` and stop.
11

====

- Assay Explanation: In-vivo pharmacokinetics of compounds in SD rats
- Condition Parameters: rat, plasma, intravenous, 3 mg/kg, read-out: Vz
# Vd listing for each entry below
Value expressed in L/kg; do not type the unit.

[
  {
    "Chemical Structure": "CC[C@@]1(O)C(=O)OCc2c1cc1n(c2=O)Cc2c-1nc1cc(F)c(C)c3c1c2[C@@H](NC(=O)CO)CC3",
    "Vd, L/kg": 10.9
  }
]

// moving on: another record for Vd
Specify Vd for `C=CCN(CCO)C(=O)N[C@H]1CCc2c(C)c(F)cc3nc4c(c1c23)Cn1c-4cc2c(c1=O)COC(=O)[C@]2(O)CC` and stop.
18.7

Reference source for all entries: patent US20260284214A1
